assay-target: T1, human FcRn/b2M (human, UniProt P61769 21-119, biotinylated)
T1 construct: bought recombinant biotinylated protein (ACRO FCM-H82W4 or Immunitrack ITF01); also called hFcRn; hFcRn/hb2M
assay-name: SPR off-rate; pH 7.4 vs pH 6.0;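 also: surface plasmon resonance with diluted periplasmic extracts flowed over ligand surfaces, 120 s association and 600–3600 s dissociation at 25 °C, running buffer containing 150 mM NaCl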
quantity: kd ratio pH 7.4/6.0

P. T0263018B11 A33V (VHH, name in Kabat numbering, FLAG3-His6 tagged) VHH: EVQLVESGGGVVQPGGSLRLSCAASGFTFSSYVMYWVRQAPGKGLEWVSAISSGGGSTDYADSVKGRFTISRDNSKNTLYLQMNSLRPEDTALYYCAADTLYTSLTWYSYWGQGTLVTVSS
Q. T0263018B11 S52R (VHH, name in Kabat numbering, FLAG3-His6 tagged) VHH: EVQLVESGGGVVQPGGSLRLSCAASGFTFSSYAMYWVRQAPGKGLEWVSAIRSGGGSTDYADSVKGRFTISRDNSKNTLYLQMNSLRPEDTALYYCAADTLYTSLTWYSYWGQGTLVTVSS
QUERY: I would appreciate it if you could say which entry, P or Q , has the lower kd ratio pH 7.4/6.0 value. Refer to your chosen entry by its label in the reply.
RESULT: Q
(Q: 20, P: 37)
